Data credit: ChEMBL document CHEMBL4732197

Experiment: Selectivity index, ratio of CC50 for human MT4 cells to EC50 for antiviral activity against HIV IIIB
Assay type: toxicity
Settings: read-out: Ratio CC50/EC50
OBSERVED_PROPERTY: selectivity ratio
Reply with just the number.

Ask | Query: selectivity ratio; subject: Cc1cc(/C=C/C#N)cc(C)c1Oc1nc(Nc2ccc(CN3CCNCC3)cc2)nc2ccsc12
Reply | 18

Ask | Query: selectivity ratio; subject: Cc1cc(/C=C/C#N)cc(C)c1Oc1nc(Nc2ccc(CN3CCN(S(N)(=O)=O)CC3)cc2)nc2ccsc12
Reply | 19000

Ask | Query: selectivity ratio; subject: Cc1cc(/C=C/C#N)cc(C)c1Oc1nc(Nc2ccc(CN3CCN(S(C)(=O)=O)CC3)cc2)nc2sccc12
Reply | 3560

Ask | Query: selectivity ratio; subject: Cc1cc(/C=C/C#N)cc(C)c1Oc1nc(Nc2ccc(CN3CCNCC3)cc2)nc2sccc12
Reply | 94

Ask | Query: selectivity ratio; subject: Cc1cc(/C=C/C#N)cc(C)c1Oc1nc(Nc2ccc(N3CCCC(NS(C)(=O)=O)C3)cc2)nc2sccc12 (stereo not drawn)
Reply | 78

Ask | Query: selectivity ratio; subject: Cc1cc(/C=C/C#N)cc(C)c1Oc1nc(Nc2ccc(N3CCNCC3)cc2)nc2sccc12
Reply | 8

Ask | Query: selectivity ratio; subject: Cc1cc(/C=C/C#N)cc(C)c1Oc1nc(Nc2ccc(CN3CCN(S(C)(=O)=O)CC3)cc2)nc2ccsc12
Reply | 53

Ask | Query: selectivity ratio; subject: Cc1cc(/C=C/C#N)cc(C)c1Oc1nc(Nc2ccc(N3CCCC(N)C3)cc2)nc2ccsc12 (stereo not drawn)
Reply | 5

Ask | Query: selectivity ratio; subject: Cc1cc(/C=C/C#N)cc(C)c1Oc1nc(Nc2ccc(N3CCCC(N)C3)cc2)nc2sccc12 (stereo not drawn)
Reply | 10

Ask | Query: selectivity ratio; subject: Cc1cc(/C=C/C#N)cc(C)c1Oc1nc(Nc2ccc(N3CCNCC3)cc2)nc2ccsc12
Reply | 15

Ask | Query: selectivity ratio; subject: Cc1cc(/C=C/C#N)cc(C)c1Oc1nc(Nc2ccc(N3CCN(S(C)(=O)=O)CC3)cc2)nc2ccsc12
Reply | 428
